Data credit: patent US9266876B2

# subject.of.test: CXCR3 (Homo sapiens (Human), UniProt P49682)
# Sequence (P49682 whole entry): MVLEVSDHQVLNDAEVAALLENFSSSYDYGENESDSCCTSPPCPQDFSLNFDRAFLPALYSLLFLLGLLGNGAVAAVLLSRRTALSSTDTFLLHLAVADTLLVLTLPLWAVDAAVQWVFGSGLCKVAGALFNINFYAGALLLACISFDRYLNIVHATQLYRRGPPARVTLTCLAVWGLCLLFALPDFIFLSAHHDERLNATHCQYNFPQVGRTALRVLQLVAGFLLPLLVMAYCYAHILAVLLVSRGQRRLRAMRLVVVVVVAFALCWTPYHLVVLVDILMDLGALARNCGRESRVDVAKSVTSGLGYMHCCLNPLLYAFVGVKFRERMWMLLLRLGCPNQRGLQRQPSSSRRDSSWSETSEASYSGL
# assay.method.text: Receptor internalization assay
# Assay type: cell-based
# measurement.parameters: human whole blood; final CXCL10 concentration 9 nM; 30 min 37° C.; CXCR3 cell surface expression on CD3 positive cells, flow cytometer; read-out: Internalization IC50
test.readout: pIC50
// field semantics: pIC50 = negative decimal log of concentration (mol/L)

Problem: So what does the record say about pIC50 for Cc1nc(CN(C)C)nn1CC(=O)N1CCN(c2sc(C(F)(F)F)nc2-c2nc3ccccc3[nH]2)C[C@H]1C [Example 218] ?
Solution: 6.27

Problem: So what does the record say about pIC50 for Cc1nc(C)n(CC(=O)N2CCN(c3sc(C(F)(F)F)nc3-c3nc4ccc(-n5cncn5)cc4[nH]3)C[C@H]2C)n1 [Example 234] ?
Solution: 6.09

Problem: So what does the record say about pIC50 for COc1cccc2nc(-c3ncsc3N3CCN(C(=O)Cn4c(=O)n(C)c5ccccc54)CC3)[nH]c12 [Example 30] ?
Solution: 6.25

Continuing:
Problem: So what does the record say about pIC50 for C[C@@H]1CN(c2sc(C(F)(F)F)nc2-c2nc3ccccc3[nH]2)CCN1C(=O)Cn1cnc2c1CCN(C)C2 [Example 209] ?
Solution: 7.00

Problem: So what does the record say about pIC50 for C[C@@H]1CN(c2sc(C(F)(F)F)nc2-c2nc3ccccc3[nH]2)CCN1C(=O)Cc1ccccc1-n1cccn1 [Example 203] ?
Solution: 5.68

Problem: So what does the record say about pIC50 for C[C@@H]1CN(c2scnc2-c2nc3ccccc3[nH]2)CCN1C(=O)Cn1c(CO)cc2cccnc21 [Example 154] ?
Solution: 5.52

Problem: So what does the record say about pIC50 for Cc1nc(C)n(CC(=O)N2CCN(c3sc(C(F)(F)F)nc3-c3nc4ccccc4[nH]3)C[C@@H]2C)n1 [Example 243] ?
Solution: 5.95

Problem: So what does the record say about pIC50 for C[C@@H]1CN(c2sc(C(F)(F)F)nc2-c2nc3ccccc3[nH]2)CCN1C(=O)Cn1cc(Cl)cn1 [Example 175] ?
Solution: 6.64
